Test system: Malme-3M
test_name: NCI tumour cell line growth inhibition, 48 h
The source made the active and inactive calls. Rule as the data show it: active = GI50 up to about 1.1 µM and inactive = higher.
quantity_measured: GI50

compound	assay_value
Cc1c2cnccc2c(C)c2c1c1ccccc1n2CC1CO1 (centres undefined)	1.75 µM (inactive)
Oc1ccc(Cc2cc(Cc3ccc(O)cc3)cc(Cc3ccc(O)cc3)c2)cc1	> 50 µM (inactive)
COc1ccc(/C(=N\NC(=O)C(=O)NN)C(c2ccc(OC)cc2)C2(O)C(=O)Nc3ccccc32)cc1 (centres undefined)	42.7 µM (inactive)

Proceed to the following item.
-- ask What reported GI50 corresponds to C[C@]12C=CC(=O)C=C1CC[C@H]1[C@@H]3C[C@@H](O)[C@](O)(C(=O)CO)[C@@]3(C)C[C@H](O)[C@@]12F on Malme-3M?
-- reply > 100 µM (inactive)

---

Tested on: SF-268
test_name: NCI tumour cell line growth inhibition, 48 h
Active and inactive are the calls of the source. Cut-off read from the data, not from the text of the source: active = GI50 up to about 1.1 µM and inactive = higher.
Reported GI50 values for the following compounds.

Illustrative cases are given below, each with its answer.
compound	experimental_target	GI50
COc1cccc(NC(=O)CSc2nnc(-c3ccc(NC(C)=O)cc3)o2)c1	SF-268	> 100 µM (inactive)
CC1(O)CCC2(C)C(=O)C1(C)CCC21OCCO1 (configuration not stated)	SF-268	> 100 µM (inactive)
Nc1nonc1-c1noc(-c2nonc2N)[n+]1[O-]	SF-268	> 100 µM (inactive)
CC(Cc1ccccc1)Nc1ncnc2c1ncn2C1OC(CO)CC1O (configuration not stated)	SF-268	> 100 µM (inactive)
O=C(CSc1nnc(-c2ccccn2)s1)N/N=C/c1ccccc1	SF-268	48.9 µM (inactive)

-- ask Look at this compound and give its reported GI50. C=C1C(C)C2C(Cc3ccccc3)NC(=O)C23C(OC(C)=O)C=CC(C)(O)C(=O)C(C)C/C=C/C3C1O (configuration not stated)
-- reply 1.45 µM (inactive)

-- ask And for Oc1ccc[nH]c1=[Se] ?
-- reply 76.2 µM (inactive)

-- ask What would you report for CN(C)N1C(=C(C#N)C#N)C(c2ccccc2)CC1C#N (configuration not stated) ?
-- reply > 100 µM (inactive)

-- ask Same question, CC(=O)OCC1OC(n2c(-c3ccccc3)c(C(C)=O)c(-c3cccc4ccccc34)c(C#N)c2=S)C(OC(C)=O)C(OC(C)=O)C1OC(C)=O (configuration not stated) this time
-- reply > 100 µM (inactive)

-- ask Try this compound too: c1ccc(-c2nnc(-c3nsc4ccccc34)o2)cc1
-- reply > 100 µM (inactive)

-- ask Ok, now CC(=O)OCC1CCC(=C2C(=O)OC(C)(C)OC2=O)N1 (configuration not stated)
-- reply > 100 µM (inactive)

-- ask Another compound to check: COc1cc(/C=C2\N=C(c3ccccc3)N(c3ccc4c(c3)Sc3cc(N5C(=O)/C(=C/c6cc(OC)c(OC)c(OC)c6)N=C5c5ccccc5)ccc3N4)C2=O)cc(OC)c1OC
-- reply 18.4 µM (inactive)

---

Tested on: 786-0
test_name: NCI tumour cell line growth inhibition, 48 h
The source made the active and inactive calls. Cut-off read from the data, not from the text of the source: active = GI50 up to about 1.1 µM and inactive = higher.
quantity_measured: GI50

Worked cases, GI50 given:
molecule	GI50
CCOC(=O)c1cc(-c2ccc(Cl)cc2)c([N+](=O)[O-])n1C	> 10 µM (inactive)
COc1cc(COC(=O)N(CC(=O)O)c2ccccc2)c([N+](=O)[O-])cc1OC	> 100 µM (inactive)
Cn1c(=O)nc2n(-c3ccc(Cl)cc3)c3ccc(Cl)cc3nc-2c1=O	12.2 µM (inactive)
Cc1cc(=O)oc2c(OS(C)(=O)=O)c(OS(C)(=O)=O)ccc12	> 100 µM (inactive)
O=[N+]([O-])c1ccc(C[P+]2(c3ccccc3)CCCCC2)cc1.[O-][Cl+3]([O-])([O-])[O-]	> 100 µM (inactive)
NC(=O)C(Nc1ccc(Cl)cc1)c1cc2cc(Br)ccc2nc1Cl (centres undefined)	> 50 µM (inactive)
O=c1cc(O)cc2n1CCC2	> 100 µM (inactive)
CN1CCN(c2ccncc2S(=O)(=O)N2CCN(C)CC2)CC1	> 100 µM (inactive)
COC(=O)Nc1nc2cc(NS(=O)(=O)c3cccs3)ccc2[nH]1	34.3 µM (inactive)
O=C1C(NCCO)=C(N2CC2)C(=O)C(NCCO)=C1N1CC1	24.4 µM (inactive)

-- ask // lookup GI50 for COc1cc2ccc3c4cc(OC)c(OC)cc4c[n+](C)c3c2cc1O
-- reply > 100 µM (inactive)

-- ask # repeat for Fc1ccc2c(c1)nc1n2C(c2c(F)cccc2F)SC1 (centres undefined)
-- reply 66.7 µM (inactive)

-- ask Entry to check: CN(C)c1ncnc2c1ncn2C1C=CC(COS(N)(=O)=O)C1 (centres undefined)
-- reply > 100 µM (inactive)

-- ask Then what about the molecule COc1ccc2c(c1OC)C(=O)O[C@@H]2[C@H]1c2c(cc3c(c2OC)OCO3)CCN1C ?
-- reply 49.9 µM (inactive)

-- ask Similarly, CCOC(=O)/C(C#N)=C/N(CC)/N=C/c1ccccc1 ?
-- reply 86.9 µM (inactive)

-- ask Likewise for C=CCOc1cc2c(cc1C(C)c1ccc(OC)cc1)OCO2 (centres undefined) ?
-- reply 0.655 µM (active)

-- ask Repeat with CN(C)CCCOCCn1c2c(c3ccccc31)CCCC2
-- reply 15.2 µM (inactive)

-- ask Now give it for C=C1CC2(OC1=O)c1ccccc1CCc1ccccc12 too.
-- reply 1.75 µM (inactive)

-- ask Could you do the same for COc1ccc(C(c2c[nH]c3ccc(Br)cc23)c2c[nH]c3ccc(Br)cc23)cc1 , please?
-- reply 0.215 µM (active)

-- ask Moving on to the next molecule: CC1OC1P(=O)(O)O (centres undefined)
-- reply > 100 µM (inactive)

-- ask # iterate: CCOC(=O)NC1=C(N2CC2)C(=O)C(NC(=O)OCC)=C(N2CC2)C1=O
-- reply 1.56 µM (inactive)

---

System: HL-60
test_name: NCI tumour cell line growth inhibition, 48 h
Activity calls are given as the source filed them. Cut-off read from the data, not from the text of the source: active = GI50 up to about 1.1 µM and inactive = higher. Where a SMILES comes first, the peptide text is derived from it. [ ]: non-standard residue; d: D form. The star is where a group is joined. Hyp = O=C(O)[CH]1C[CH](O)CN1; Cbz = O=C(OCc1ccccc1)*
quantity_measured: GI50

Recorded results for 2 compounds are shown here.
compound	experimental_target	GI50
Cc1ccc(C2=CC(=O)OC(C[P+](c3ccccc3)(c3ccccc3)c3ccccc3)(c3ccccc3)O2)cc1 (centres undefined)	HL-60	20.1 µM (inactive)
NC(=O)CNC(=O)C1CC(O)CN1C(=O)C1CCCN1C(=O)OCc1ccccc1 (stereo not drawn) (Cbz-Pro-[Hyp]-Gly-NH2; configuration not given here)	HL-60	> 100 µM (inactive)

-- ask Record request: GI50 value, item CCCCNC(=O)OCCN=c1c2ccccc2ccc2ccccc12
-- reply > 100 µM (inactive)

-- ask Cool, now Cc1csc(CP(=O)(OC(C)C)OC(C)C)n1
-- reply > 100 µM (inactive)

-- ask Cool, now COc1ccc(S(=O)(=O)N(CC(=O)O)c2ccccc2)cc1
-- reply > 100 µM (inactive)

-- ask Next compound up: COC(=O)C(CC(=O)Nc1ccc(C)cc1)C(=O)C(=O)Nc1ccccc1C(C)C (centres undefined)
-- reply > 100 µM (inactive)

-- ask Please do the same for COc1cc(COC(=O)N(CC(=O)O)c2ccccc2)c([N+](=O)[O-])cc1OC as well.
-- reply > 100 µM (inactive)

-- ask Lookup O=C(NN=C1NCCN1)c1ccco1
-- reply > 100 µM (inactive)

-- ask Same read-out for C(=C\c1ccc(-c2cn3cc(/C=C/C=N/NC4=NCCN4)ccc3n2)cc1)/C=N/NC1=NCCN1 ?
-- reply 0.368 µM (active)

---

# GI50 per record follows
Tested on: EKVX
test_name: NCI tumour cell line growth inhibition, 48 h
Calls of active or inactive are those of the source. Cut-off read from the data, not from the text of the source: active = GI50 up to about 1.1 µM and inactive = higher.

Here's what some known entries look like.
compound	GI50
Cc1cnc(Cl)nc1C(C#N)c1nc2ccccc2s1 (stereo not given)	32.8 µM (inactive)
NC(C/C=C/P(=O)(O)O)C(=O)O (stereo not given)	> 100 µM (inactive)
CCCCn1c2c(c3ccccc3c1=O)C(=O)c1ccccc1-2	> 100 µM (inactive)
CN(C)C(=S)/N=c1\ss/c(=N/c2ccccc2)n1C	> 100 µM (inactive)
COc1ccc(-c2cc(O)c3ccc(C)nc3n2)cc1	> 100 µM (inactive)
COc1cccc2c1C(=O)C1=C(C2=O)C(O)CC(C)(C)O1 (stereo not given)	43.1 µM (inactive)

-- ask Consider the compound shown here: COc1ccc(C2Cc3cc(OC)c(OC)c(OC)c3C2=O)cc1 (stereo not given) What is its recorded GI50?
-- reply > 100 µM (inactive)

-- ask Queued: CC(=O)OC(C)(C)CCC(=O)[C@](C)(O)[C@H]1[C@H](O)C[C@@]2(C)[C@@H]3CCc4c(cc(OC5OC(CO)C(O)C(O)C5O)c(O)c4C)C3(C)C(=O)C[C@]12C (stereo not given in full)
-- reply > 100 µM (inactive)
